Measured EC50 fold change compared to reference of individual entries
- target or system: T1, rhNav1.7α + β1-β2-β3 (rhesus Nav1.7α co-expressed with Navβ1, Navβ2 and Navβ3) (rhesus monkey)
- T1 construct: also called rhNav1.7-beta1-beta2-beta3
- measurement description: binding FACS; plus = higher activity than reference
Please reply with the bare figure in fold and do not write the unit itself.

F010301888 (VHH, also called F0103464B09(S26H); S26H) VHH: EVQLVESGGGLVQPGGSLRLSCATTHRAFIRDVFTGWYRRVPGKERELVARIYNGGNTNYADFAKGRFSISRDNAKKMVTLRMSNLKPEDTGVYYCLFSGTINTGREYRSGDYWGQGTLVTVSS	3
F010301893 (VHH, also called F0103464B09(L11V, E44Q, S68T, T79Y, R81Q, S82aN, N82bS, K83R, G88A, V89L); E44Q) VHH: EVQLVESGGGVVQPGGSLRLSCATTSRAFIRDVFTGWYRRVPGKQRELVARIYNGGNTNYADFAKGRFTISRDNAKKMVYLQMNSLRPEDTALYYCLFSGTINTGREYRSGDYWGQGTLVTVSS	3

Entry F010301892 (VHH, also called F0103464B09(V33L); V33L) VHH: EVQLVESGGGLVQPGGSLRLSCATTSRAFIRDLFTGWYRRVPGKERELVARIYNGGNTNYADFAKGRFSISRDNAKKMVTLRMSNLKPEDTGVYYCLFSGTINTGREYRSGDYWGQGTLVTVSS : reported EC50 fold change compared to reference = ?
3

Next up: F010301886 (VHH, also called F0103464B09(N58Q); N58Q) VHH: EVQLVESGGGLVQPGGSLRLSCATTSRAFIRDVFTGWYRRVPGKERELVARIYNGGNTQYADFAKGRFSISRDNAKKMVTLRMSNLKPEDTGVYYCLFSGTINTGREYRSGDYWGQGTLVTVSS
2
